Assay: chemical genetic growth profiling, strain panel (AID 1159580);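 further: tested at 20 µM; growth read once vehicle control cultures reached saturation at 30 °C; 1 = growth at the plate median or of vehicle wells; lower values mean less growth of the strain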
Settings: S. cerevisiae deletion strains, growth OD, locus YLR058C, strain SHM2 (second series), hits give low values
Among all 5,500 compounds or so, about 2,000 (36%) were called active. Not shown: some 18% with an inconclusive outcome. The list shows a part of the results.
Below: a set of entries, each annotated with reported normalized growth.
// return a plain number; no unit text

Use these answered entries as a reference point.
{"molecule": "CCN1CN=C(SCc2ccc(Br)cc2)NC1", "normalized growth": 1.02}
{"molecule": "O=c1oc2ccccc2cc1[N+](=O)[O-]", "normalized growth": 0.0528}
{"molecule": "FC(F)(F)c1ccc2[nH]c(=S)[nH]c2c1", "normalized growth": 0.994}
{"molecule": "NNC(=O)c1cnn(-c2ccc(Cl)cc2)c1C(F)(F)F", "normalized growth": 1}
{"molecule": "c1ccc(-c2csc(-c3cccnc3)n2)cc1", "normalized growth": 0.908}

Turning to the following molecule.
Ask: Field request: normalized growth | item: c1ccc(-c2ccc(-c3csc(-c4cccnc4)n3)cc2)cc1
Reply: 1.02

----------
Experiment: chemical genetic growth profiling, strain panel (AID 1159580);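 further: tested at 20 µM; growth read once vehicle control cultures reached saturation at 30 °C; 1 = growth at the plate median or of vehicle wells; lower values mean less growth of the strain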
Details: S. cerevisiae deletion strains, growth OD, locus YMR231W, strain pep5
The campaign covered roughly 5,500 compounds. About 2,000 (36%) were called active. Inconclusive results (about 18%) are left out. No stated cut-off is given here; in the data, active means normalized growth mostly below about 0.91 (no sharp cut-off); inconclusive means no clear call, values can overlap the other calls; inactive means mostly above about 0.92. The list shows a part of the results.
Please answer using one outcome listed in active, inactive

Answered examples (2):
{"compound": "CCCNC(=O)NS(=O)(=O)c1ccc(Cl)cc1", "group": "inactive"}
{"compound": "O=c1oc2ccccc2cc1O", "group": "inactive"}

Ask: I'd appreciate the recorded outcome for CCCCCCCCCCCCCC(=O)OC1C(C)C2(O)C(C=C(CO)CC3(O)C(=O)C(C)=CC32)C2C(C)(C)C12OC(C)=O (configuration not stated) from this test.
Reply: inactive

----------
Below: a set of entries, each annotated with reported normalized growth.
Experiment: chemical genetic growth profiling, strain panel (AID 1159580);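 further: tested at 20 µM; growth read once vehicle control cultures reached saturation at 30 °C; 1 = growth at the plate median or of vehicle wells; lower values mean less growth of the strain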
Conditions: S. cerevisiae deletion strains, growth OD, locus YMR223W, strain ubp8, hits give low values
The whole screen tested about 5,500 compounds, of which about 2,000 (36%) were called active. Not shown: some 18% with an inconclusive outcome. Some of the results follow.
// return a plain number; no unit text

Use these answered entries as a reference point.
{"compound": "C[C@]12CCC3c4ccc(O)cc4CCC3C1CCC2=O (stereo not given in full)", "experimental value": 0.987}
{"compound": "O=C(O)C(O)C(O)C(=O)O (stereo not given)", "experimental value": 1}
{"compound": "C1N2CN3CN1CN(C2)C3", "experimental value": 0.966}
{"compound": "CC(=O)O[C@@H]1CC2C(C)(C)[C@@H](O)CC[C@]2(C)C2CC[C@@]3(C)[C@H](c4ccoc4)OC(=O)[C@H]4O[C@]43[C@@]21C (stereo not given in full)", "experimental value": 1.01}

Ask: Field request: normalized growth | item: C[C@]12CCC3c4ccc(OC(=O)c5ccccc5)cc4CCC3C1CCC2=O (stereo not given in full)
Reply: 1.04

Ask: Field request: normalized growth | item: Cc1cccc(C)c1NC(=O)C1CCCCN1C (stereo not given)
Reply: 0.998

Ask: Field request: normalized growth | item: COC(=O)[C@@H]1OC(=O)C2OC23[C@@]1(C)CCC1[C@@]2(C)CCC(=O)C(C)(C)C2C[C@@H](OC(C)=O)[C@]13C (stereo not given in full)
Reply: 1.01

Values were extracted from PubChem BioAssay AID1159580.
